Documented B-score across a set of compounds
- subject-of-test: D(1A) dopamine receptor (Homo sapiens) (UniProt P21728)
- Sequence (P21728 whole entry, looked up): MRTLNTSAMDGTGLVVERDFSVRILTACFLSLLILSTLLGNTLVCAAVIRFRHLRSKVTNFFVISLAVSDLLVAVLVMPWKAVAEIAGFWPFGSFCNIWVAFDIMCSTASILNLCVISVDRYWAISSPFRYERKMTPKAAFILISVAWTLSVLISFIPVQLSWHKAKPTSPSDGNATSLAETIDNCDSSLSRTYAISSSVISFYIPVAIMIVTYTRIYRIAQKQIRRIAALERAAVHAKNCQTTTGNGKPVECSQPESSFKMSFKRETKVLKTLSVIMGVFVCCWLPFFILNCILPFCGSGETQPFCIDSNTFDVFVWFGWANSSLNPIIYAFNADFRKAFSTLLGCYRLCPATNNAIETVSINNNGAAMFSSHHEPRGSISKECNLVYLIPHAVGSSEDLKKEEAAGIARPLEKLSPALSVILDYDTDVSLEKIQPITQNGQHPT
- test: D1 CRE-luciferase signal change, two-sided – cell-based, HEK293 D1, dopamine EC30, D1 allosteric modulator project, primary screen (AID 641)
- condition-info: dopamine EC30 potentiation, at 10 µM, actives deviate in either direction
Screen size: about 58,000 compounds; about 3,400 (5.9%) were called active. Many of the other results were omitted from the sample, so actives are more common in it than they were.
// return just the number, without any unit appended

compound | B-score
Cc1ccc(S(=O)(=O)c2c(N)n(C)c3nc4ccccc4nc23)cc1 | 8.84
CC(C)(C)Oc1ncc(Br)c(OC(C)(C)C)n1 | 0.0357
O=S(N1CCCCCC1)C12CC3CC(CC(C3)C1)C2 (stereo unspecified) | -1.48

[in] Sample CN(C)CCNC(CC(=O)Nc1ccc(Cl)c(Cl)c1)C(=O)O (stereo unspecified) — what was its B-score?
[out] 0.834

[in] Sample O=C(Nc1cccnc1)c1noc2c1CCCCC2 — what was its B-score?
[out] -2.9

[in] Sample CCOc1cccc(C(=O)Nc2cccnc2)c1 — what was its B-score?
[out] 0.108

----------
- subject-of-test: D(1A) dopamine receptor (Homo sapiens)
- test: D1 CRE-luciferase signal change, two-sided – cell-based, HEK293 D1, dopamine EC30, D1 allosteric modulator project, primary screen (AID 641)
- condition-info: dopamine EC30 potentiation, at 10 µM, actives deviate in either direction
In all, about 58,000 compounds went through this assay and about 3,400 (5.9%) were called active. For the sample, actives were picked, then their nearest neighbours and some compounds at random.
measurement-kind: B-score

compound | B-score
CCNC(=O)CCc1nc(-c2ccc(C(C)(C)C)cc2)no1 | -0.735 (inactive)
Nc1ccc(-c2nnc(-c3ccc(-c4ccccc4)cc3)o2)cc1 | -0.481 (inactive)

[in] Find B-score (D(1A) dopamine receptor (Homo sapiens)) for the entry COc1cccc(N2C(=O)C3CCCN3C2c2ccc(F)cc2)c1 (stereo not given)
[out] 0.0389 (inactive)

[in] Find B-score (D(1A) dopamine receptor (Homo sapiens)) for the entry O=C(COC(=O)c1ccc2c(c1)OCCO2)NCc1ccccc1
[out] 0.524 (inactive)

[in] Find B-score (D(1A) dopamine receptor (Homo sapiens)) for the entry Cc1cc(C)nc(SCc2ccccc2C#N)n1
[out] 1.42 (inactive)

----------
- subject-of-test: D(1A) dopamine receptor (Homo sapiens)
- test: D1 CRE-luciferase signal change, two-sided – cell-based, HEK293 D1, dopamine EC30, D1 allosteric modulator project, primary screen (AID 641)
- condition-info: dopamine EC30 potentiation, at 10 µM, actives deviate in either direction
Hit rate of the full screen: of about 58,000 compounds, about 3,400 (5.9%) were called active.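 How the source made its calls: active means luminescence count or its row- and column-corrected plate score outside the 99.7% band of the plate's sample wells, on either side; inactive means the rest.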 This excerpt belongs to a sample that is enriched for actives.
Log the outcome using a class from active, inactive

Some solved cases for reference:
compound | subject-of-test | label-class
COCCn1nnnc1C(c1cc2ccc(OC)cc2[nH]c1=O)N1CCc2ccccc2C1 (stereo unspecified) | D(1A) dopamine receptor (Homo sapiens) | inactive
O=C(CN1CCN(CC(=O)Nc2ccc3c(c2)OCO3)CC1)Nc1ccc(F)cc1 | D(1A) dopamine receptor (Homo sapiens) | inactive
CCOc1ccc2[nH]c(=O)c(C(c3nnnn3CCOC)N3CCOCC3)cc2c1 (stereo unspecified) | D(1A) dopamine receptor (Homo sapiens) | active
CCN(CC)CCN1C(=O)C(=O)/C(=C(/O)c2ccccc2)C1c1ccccc1F (stereo unspecified) | D(1A) dopamine receptor (Homo sapiens) | inactive
CCOC(=O)C1Cn2c(nc3c(c2=O)C(C)(CC)Cc2ccccc2-3)S1 (stereo unspecified) | D(1A) dopamine receptor (Homo sapiens) | inactive

[in] Assay result, entry COc1ccc(-c2n[nH]c(C)c2-c2ccc(OC)c(OC)c2)c(O)c1 — outcome?
[out] active

[in] Assay result, entry Cc1nn2c3ccccc3nc2n(C)c1=O — outcome?
[out] inactive

[in] Assay result, entry Cc1ccc(S(=O)(=O)Nc2ccccc2CNc2c(C)n(C)n(-c3ccccc3)c2=O)cc1 — outcome?
[out] inactive

[in] Assay result, entry CCN1C(=O)CS/C1=N\c1nccs1 — outcome?
[out] inactive

[in] Assay result, entry CNC(=O)C1CC(=O)N(Cc2ccc3c(c2)OCO3)C(=Nc2ccc(F)cc2)S1 (stereo unspecified) — outcome?
[out] active

[in] Assay result, entry CCCc1[nH]nc2c1C(c1ccc(OC)c(Cn3nc(C)c(Br)c3C)c1)C(C#N)=C(N)O2 (stereo unspecified) — outcome?
[out] inactive

[in] Assay result, entry c1ccc(CSc2nnc(-c3ccco3)c(-c3ccco3)n2)cc1 — outcome?
[out] inactive

[in] Assay result, entry COc1ccc(-c2noc(COc3ccc(Cl)c(C)c3)n2)cc1 — outcome?
[out] inactive

[in] Assay result, entry COCCn1c(-c2ccc(OC)c(OC)c2)nc2ccccc21 — outcome?
[out] inactive

[in] Assay result, entry CCCSc1nc2c(c(=O)n(C)c(=O)n2C)n1Cc1ccc(C)cc1 — outcome?
[out] inactive

[in] Assay result, entry c1coc(-c2nc3nc4ccccc4n3nc2-c2ccco2)c1 — outcome?
[out] active

----------
- subject-of-test: D(1A) dopamine receptor (Homo sapiens) (UniProt P21728)
- test: D1 CRE-luciferase signal change, two-sided – cell-based, HEK293 D1, dopamine EC30, D1 allosteric modulator project, primary screen (AID 641)
- condition-info: dopamine EC30 potentiation, at 10 µM, actives deviate in either direction
Among all 58,000 compounds or so, about 3,400 (5.9%) were called active. Many of the other results were omitted from the sample, so actives are more common in it than they were.
measurement-kind: B-score
// return just the number, without any unit appended

Take a look at these entries with their results.
molecule | subject-of-test | measurement-kind | assay-result
O=C(Nc1c(Cl)cccc1Cl)C1CCC1 | D(1A) dopamine receptor (Homo sapiens) (UniProt P21728) | B-score | -0.785
CCn1cc(C(=O)N2CCN(Cc3ccc4c(c3)OCO4)CC2)c2cc(OC)c(OC)cc2c1=O | D(1A) dopamine receptor (Homo sapiens) (UniProt P21728) | B-score | -1.2
Cc1ccc(C)c(S(=O)(=O)n2cnc3ccccc32)c1 | D(1A) dopamine receptor (Homo sapiens) (UniProt P21728) | B-score | 0.135
Cc1nc(N2CCN(c3ncccn3)CC2)c2oc3ccccc3c2n1 | D(1A) dopamine receptor (Homo sapiens) (UniProt P21728) | B-score | 3.11
CCn1cc(C(=O)NCC2COc3ccccc3O2)c2cc(OC)c(OC)cc2c1=O (stereo not drawn) | D(1A) dopamine receptor (Homo sapiens) (UniProt P21728) | B-score | 5.22

[in] Sample CCC(C)NC(=O)N[C@@H](CCSC)C(=O)O (stereo partly drawn) — what was its B-score?
[out] -0.322

[in] Sample Cc1ccc(-n2ncc3c2ncn2nc(-c4ccco4)nc32)c(C)c1 — what was its B-score?
[out] 0.753

[in] Sample COc1cccc(N2CC(C(=O)Nc3c(C)cccc3C)CC2=O)c1 (stereo not drawn) — what was its B-score?
[out] 0.869

----------
Documented B-score across a set of molecules
- subject-of-test: D(1A) dopamine receptor (Homo sapiens)
- test: D1 CRE-luciferase signal change, two-sided – cell-based, HEK293 D1, dopamine EC30, D1 allosteric modulator project, primary screen (AID 641)
- condition-info: dopamine EC30 potentiation, at 10 µM, actives deviate in either direction
The campaign covered roughly 58,000 compounds. About 3,400 (5.9%) were called active. This is one part of a sample in which actives are shown more often than they occur.
// return just the number, without any unit appended

[in] Sample O=C(CCC(=O)OCC(F)(F)C(F)F)NCc1ccccc1 — what was its B-score?
[out] 0.31

[in] Sample N#CCCN1CCN(S(=O)(=O)c2ccc(S(=O)(=O)N3CCCC3)cc2)CC1 — what was its B-score?
[out] 0.478

[in] Sample CCC(=O)N1CCc2cc(S(=O)(=O)NC(C(=O)N3CCc4ccccc4C3)C(C)C)ccc21 (stereo not drawn) — what was its B-score?
[out] 1.68

----------
- subject-of-test: D(1A) dopamine receptor (Homo sapiens)
- test: D1 CRE-luciferase signal change, two-sided – cell-based, HEK293 D1, dopamine EC30, D1 allosteric modulator project, primary screen (AID 641)
- condition-info: dopamine EC30 potentiation, at 10 µM, actives deviate in either direction
Among all 58,000 compounds or so, about 3,400 (5.9%) were called active.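 How the source made its calls: active means luminescence count or its row- and column-corrected plate score outside the 99.7% band of the plate's sample wells, on either side; inactive means the rest.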 Many of the other results were omitted from the sample, so actives are more common in it than they were.
Log the outcome using a class from active, inactive

compound | label-class
O=C(c1cccs1)N1CCN(Cc2ccc3c(c2)OCO3)CC1 | inactive
Cc1nc2sc(C(c3ccco3)N3CCC4(CC3)OCCO4)c(O)n2n1 (stereo unspecified) | inactive
c1ccc2c(NCC3CCCO3)nc(-c3ccncc3)nc2c1 (stereo unspecified) | active
CN1CCN(CC(O)COCc2ccc3c(c2)OCO3)CC1 (stereo unspecified) | active
CC(=O)NS(=O)(=O)c1ccccc1 | inactive

Now for a further compound.
[in] Assay result, entry CCCn1c(=O)c2[nH]c(C3CCCC3)nc2n(CCC)c1=O — outcome?
[out] active
